B1: TNXB (parent)
chain: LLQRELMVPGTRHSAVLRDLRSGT

Variants of: B1
Assay: protein stability index of a GFP-peptide fusion (GPS, HEK-293T) (PSI 1-6); higher = more stable;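 note: lentivirally expressed fusions sorted by FACS into six bins by GFP to DsRed ratio, PSI derived from sequencing read proportions per bin multiplied by bin number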
Conditions: c terminus: a fixed tail appended
protein stability index reference
API doc: respond with a numeric literal and nothing else, no unit.

Illustrative cases are given below, each with its answer.
QUERY: Hello, please tell me recorded protein stability index for this one: `H13I`
RESULT: 1.91

QUERY: Please give the documented protein stability index of `L1V`
RESULT: 2.47

QUERY: Give protein stability index for `T11F`
RESULT: 2.3

QUERY: State its protein stability index: `L17D`
RESULT: 2.62

Now consider the entry below.
QUERY: Consider the variant `G10I` . State its measured protein stability index.
RESULT: 1.64
